The entries below come with measured normalized growth values attached.
# Protocol Description: chemical genetic growth profiling, strain panel (AID 1159580);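 further: tested at 20 µM; growth read once vehicle control cultures reached saturation at 30 °C; 1 = growth at the plate median or of vehicle wells; lower values mean less growth of the strain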
# Assay Conditions: S. cerevisiae deletion strains, growth OD, locus YOR184W, strain ser1, hits give low values
Screen size: about 5,500 compounds; about 2,000 (36%) were called active. Roughly 18% stayed inconclusive and do not appear here. This is one part of the list.
Form: value (number only, do not type unit).

Some solved cases for reference:
| Cpd Smiles | Recorded Measurement |
| --- | --- |
| CN1CCN(C(c2ccccc2)c2ccccc2)CC1 | 0.994 |
| Fc1ccc(C(c2ccc(F)cc2)N2CCN(C/C=C/c3ccccc3)CC2)cc1 | 1.03 |

Next compound, normalized growth to be filled in.
// normalized growth lookup, key: O=c1cc(-c2ccc(O)cc2)oc2cc(O[C@@H]3O[C@H](CO)[C@@H](O)[C@H](O)[C@H]3O[C@@H]3OC[C@](O)(CO)[C@H]3O)cc(O)c12
1.04

###

# Protocol Description: chemical genetic growth profiling, strain panel (AID 1159580);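 further: tested at 20 µM; growth read once vehicle control cultures reached saturation at 30 °C; 1 = growth at the plate median or of vehicle wells; lower values mean less growth of the strain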
# Assay Conditions: S. cerevisiae deletion strains, growth OD, locus YPR111W, strain DBF20, hits give low values
About 2,000 (36%) of roughly 5,500 compounds were called active. Inconclusive results (about 18%) are left out. Some of the results follow.
Endpoint Name: normalized growth
Write the number on its own, no unit after it.

| Compound | normalized growth |
| --- | --- |
| CCCCCc1ccc(S(=O)(=O)Nc2ncc(C)cc2Br)cc1 | 0.903 |
| FC(F)(F)c1ccc(NC(=S)Nc2ccc(C(F)(F)F)cc2Cl)c(Cl)c1 | 0.929 |
| COC(=O)c1ccc(Oc2c(C(F)(F)F)oc3cc(O)ccc3c2=O)cc1 | 0.979 |
| CC(Oc1ccc(Cl)cc1Cl)C(=O)NNC(=S)Nc1ccccc1 (stereo unspecified) | 0.961 |
| COc1cc(OC)cc(/C(N)=N\O)c1 | 0.986 |

Look up normalized growth: CCCCc1ccc(N=CNO)c(C)c1
0.995

Record: CC(NC(=S)Nc1ccc(Oc2ccc(Cl)cc2)cc1)c1ccccc1 (stereo unspecified)
1.01

Then this compound: CC(=O)Oc1ccc2c(=O)c(Oc3ccc(Cl)cc3)c(C)oc2c1
0.941

###

# Protocol Description: chemical genetic growth profiling, strain panel (AID 1159580);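 further: tested at 20 µM; growth read once vehicle control cultures reached saturation at 30 °C; 1 = growth at the plate median or of vehicle wells; lower values mean less growth of the strain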
# Assay Conditions: S. cerevisiae deletion strains, growth OD, locus YLR113W, strain HOG1, hits give low values
The whole screen tested about 5,500 compounds, of which about 2,000 (36%) were called active. Inconclusive results (about 18%) are left out. The list shows a part of the results.
Endpoint Name: normalized growth
Provide a numeric answer; units are not to be included.

Here are 3 molecules together with their reported answers.
| Cpd Smiles | normalized growth |
| --- | --- |
| N#CC(C#N)=NNc1cc(C(F)(F)F)ccc1OCC(F)(F)F | 0.32 |
| CN1CCN(C(c2ccccc2)c2ccccc2)CC1 | 0.994 |
| Cn1cnc([N+](=O)[O-])c1Sc1ncnc2nc[nH]c12 | 1.03 |

What normalized growth value was documented for this molecule, Cc1nc([N+](=O)[O-])cn1CC(=O)c1ccc(Cl)cc1 ?
0.539

###

# Protocol Description: chemical genetic growth profiling, strain panel (AID 1159580);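 further: tested at 20 µM; growth read once vehicle control cultures reached saturation at 30 °C; 1 = growth at the plate median or of vehicle wells; lower values mean less growth of the strain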
# Assay Conditions: S. cerevisiae deletion strains, growth OD, locus YDR162C, strain NBP2, hits give low values
The whole screen tested about 5,500 compounds, of which about 2,000 (36%) were called active. About 18% were inconclusive and are not listed. The list shows a part of the results.
Known normalized growth of a selection of compounds
Give the value as a plain number.

| Compound | Recorded Measurement |
| --- | --- |
| CCCCCN=C(N)N/N=C\c1c[nH]c2ccc(OC)cc12 | 0.993 |
| Cc1cc(O)c2c(c1O)C(=O)c1c(O)cc(C)c(O)c1C2=O | 0.921 |
| c1ccc2c(c1)[nH]c1cnccc12 | 1.01 |

Using the record for C[C@]12CCC3C(CC[C@H]4C[C@@H](Cl)CC[C@]34C)C1CCC2=O (some centres not stated) , report its normalized growth.
0.885

Also need Cn1nnnc1SCC1=C(C(=O)O)N2C(=O)C(NC(=O)C(OC=O)c3ccccc3)C2SC1 (configuration not stated) , thanks.
1.01

And for CCS(=O)(=O)CCn1c([N+](=O)[O-])cnc1C ?
1.02

Check Cn1c(=O)[nH]c(=O)c2[nH]cnc21 too.
0.988
